Molecular target: T1, canine NGF tagged at the C-terminus with the Flag tag (canine, UniProt A0A8I3PYI3 122-241)
T1 construct: mature; Expressed with baculovirus technology; also called feline NGF (processed form identical)
T1 sequence (A0A8I3PYI3 entry or part of it): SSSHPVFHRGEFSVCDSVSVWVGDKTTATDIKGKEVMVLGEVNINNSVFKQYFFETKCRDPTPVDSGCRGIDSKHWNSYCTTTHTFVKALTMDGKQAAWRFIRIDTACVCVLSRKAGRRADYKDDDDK
Assay: SPR off-rate screen, Fab-SASA on BSA chip
# key: entry, value: kon

BINDER	kon (M⁻¹ s⁻¹)
felinized clone 101 Fab-SASA variant F112H (VH) (Fab, V domains shown, not shown: small tags and cut ends) VH: DVQLVESGGDLVKPGGSLRLTCVASGLSLTSSSMSWVRQAPGKGLQWVSTIYSNGGTYYTDSVKGRFTISKDNAENTLYLQMNNLKTEDTATYYCASIYYYDADYLHWYFDHWGQGALVTVSS VL: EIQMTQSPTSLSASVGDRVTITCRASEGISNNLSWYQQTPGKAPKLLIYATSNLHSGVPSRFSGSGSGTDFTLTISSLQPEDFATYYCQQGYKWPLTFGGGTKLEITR	328000
felinized clone 101 Fab-SASA variant S30A (VL) (Fab, V domains shown, not shown: small tags and cut ends) VH: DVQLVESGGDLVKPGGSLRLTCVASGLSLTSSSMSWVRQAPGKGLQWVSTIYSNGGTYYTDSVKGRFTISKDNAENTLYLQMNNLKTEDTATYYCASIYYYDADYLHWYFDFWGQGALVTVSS VL: EIQMTQSPTSLSASVGDRVTITCRASEGIANNLSWYQQTPGKAPKLLIYATSNLHSGVPSRFSGSGSGTDFTLTISSLQPEDFATYYCQQGYKWPLTFGGGTKLEITR	277000
felinized clone 101 Fab-SASA variant H55L (VL) (Fab, V domains shown, not shown: small tags and cut ends) VH: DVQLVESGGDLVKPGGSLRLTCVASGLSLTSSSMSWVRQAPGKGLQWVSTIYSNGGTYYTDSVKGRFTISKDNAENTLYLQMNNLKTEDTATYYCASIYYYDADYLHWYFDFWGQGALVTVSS VL: EIQMTQSPTSLSASVGDRVTITCRASEGISNNLSWYQQTPGKAPKLLIYATSNLLSGVPSRFSGSGSGTDFTLTISSLQPEDFATYYCQQGYKWPLTFGGGTKLEITR	264000
felinized clone 101 Fab-SASA variant T60H (VH) (Fab, V domains shown, not shown: small tags and cut ends) VH: DVQLVESGGDLVKPGGSLRLTCVASGLSLTSSSMSWVRQAPGKGLQWVSTIYSNGGTYYHDSVKGRFTISKDNAENTLYLQMNNLKTEDTATYYCASIYYYDADYLHWYFDFWGQGALVTVSS VL: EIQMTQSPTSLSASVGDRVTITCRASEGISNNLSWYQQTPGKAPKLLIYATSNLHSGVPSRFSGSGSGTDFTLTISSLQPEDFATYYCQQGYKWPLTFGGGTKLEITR	312000
felinized clone 101 Fab-SASA variant S30V (VL) (Fab, V domains shown, not shown: small tags and cut ends) VH: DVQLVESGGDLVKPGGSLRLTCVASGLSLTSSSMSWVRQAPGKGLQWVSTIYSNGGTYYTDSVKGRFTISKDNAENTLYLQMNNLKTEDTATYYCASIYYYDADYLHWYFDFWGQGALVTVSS VL: EIQMTQSPTSLSASVGDRVTITCRASEGIVNNLSWYQQTPGKAPKLLIYATSNLHSGVPSRFSGSGSGTDFTLTISSLQPEDFATYYCQQGYKWPLTFGGGTKLEITR	287000
felinized clone 101 Fab-SASA variant N53V (VL) (Fab, V domains shown, not shown: small tags and cut ends) VH: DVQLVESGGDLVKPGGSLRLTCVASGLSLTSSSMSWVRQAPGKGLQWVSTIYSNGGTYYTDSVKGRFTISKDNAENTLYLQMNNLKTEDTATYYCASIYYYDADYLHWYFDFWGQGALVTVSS VL: EIQMTQSPTSLSASVGDRVTITCRASEGISNNLSWYQQTPGKAPKLLIYATSVLHSGVPSRFSGSGSGTDFTLTISSLQPEDFATYYCQQGYKWPLTFGGGTKLEITR	288000
felinized clone 101 Fab-SASA variant L54H (VL) (Fab, V domains shown, not shown: small tags and cut ends) VH: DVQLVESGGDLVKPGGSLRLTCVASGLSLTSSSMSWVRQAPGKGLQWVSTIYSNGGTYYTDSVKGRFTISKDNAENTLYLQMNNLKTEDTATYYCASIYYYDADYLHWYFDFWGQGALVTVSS VL: EIQMTQSPTSLSASVGDRVTITCRASEGISNNLSWYQQTPGKAPKLLIYATSNHHSGVPSRFSGSGSGTDFTLTISSLQPEDFATYYCQQGYKWPLTFGGGTKLEITR	340000
felinized clone 101 Fab-SASA variant G55Y (VH) (Fab, V domains shown, not shown: small tags and cut ends) VH: DVQLVESGGDLVKPGGSLRLTCVASGLSLTSSSMSWVRQAPGKGLQWVSTIYSNYGTYYTDSVKGRFTISKDNAENTLYLQMNNLKTEDTATYYCASIYYYDADYLHWYFDFWGQGALVTVSS VL: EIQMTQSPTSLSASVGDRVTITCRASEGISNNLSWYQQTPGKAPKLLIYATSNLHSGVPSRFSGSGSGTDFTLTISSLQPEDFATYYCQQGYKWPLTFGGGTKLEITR	229000
felinized clone 101 Fab-SASA variant K64D (VH) (Fab, V domains shown, not shown: small tags and cut ends) VH: DVQLVESGGDLVKPGGSLRLTCVASGLSLTSSSMSWVRQAPGKGLQWVSTIYSNGGTYYTDSVDGRFTISKDNAENTLYLQMNNLKTEDTATYYCASIYYYDADYLHWYFDFWGQGALVTVSS VL: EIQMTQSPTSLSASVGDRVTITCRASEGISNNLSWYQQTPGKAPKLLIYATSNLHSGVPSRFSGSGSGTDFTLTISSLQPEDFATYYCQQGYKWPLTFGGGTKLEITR	340000
felinized clone 101 Fab-SASA variant N31Q (VL) (Fab, V domains shown, not shown: small tags and cut ends) VH: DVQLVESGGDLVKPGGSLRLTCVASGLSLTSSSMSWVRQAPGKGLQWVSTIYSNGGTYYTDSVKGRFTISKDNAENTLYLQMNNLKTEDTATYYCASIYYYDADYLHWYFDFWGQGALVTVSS VL: EIQMTQSPTSLSASVGDRVTITCRASEGISQNLSWYQQTPGKAPKLLIYATSNLHSGVPSRFSGSGSGTDFTLTISSLQPEDFATYYCQQGYKWPLTFGGGTKLEITR	327000

Sourced from patent US20250011410A1
